System: MV4-11 cells
procedure-details: FACS time course of CD44+pBAD+ and Ki67+CD33+CD44+ populations in TKI-treated MV4-11
Format: cell-based, human
condition-description: MV4-11, 10 days after TKI treatment
quantity-kind: population of viable Ki67+CD33+CD44+ cells (%)

CNC(=O)c1cc(Oc2ccc(NC(=O)Nc3ccc(Cl)c(C(F)(F)F)c3)cc2)ccn1 ... 2.54
CC(C)(C)c1cc(NC(=O)Nc2ccc(-c3cn4c(n3)sc3cc(OCCN5CCOCC5)ccc34)cc2)no1 ... 68.2
CO[C@@H]1[C@H](N(C)C(=O)c2ccccc2)C[C@H]2O[C@]1(C)n1c3ccccc3c3c4c(c5c6ccccc6n2c5c31)C(=O)NC4 ... 2.54
CCc1nc(C(N)=O)c(Nc2ccc(N3CCC(N4CCN(C)CC4)CC3)c(OC)c2)nc1NC1CCOCC1 ... 17.4

meta.source: patent US20250123282A1
